All values here come from ChEMBL document CHEMBL4689842.

- Tested on: Fibroblast
- experimental-protocol: Multiplex assay against human fibroblast
- Format: toxicity, cell-based
- cond: 12 h, 10 µM, compound concentration 10 uM, replicate 1
Note to self: values exactly at 40% are yes. So Population Mitotic Cells (%) at or above 40% is yes, below is no.

Form field: Population Mitotic Cells (%) at least 40%? Entry: `CCN1CCN(c2ccc(Nc3cc(N(C)C(=O)Nc4c(Cl)c(OC)cc(OC)c4Cl)ncn3)cc2)CC1`
no

Form field: Population Mitotic Cells (%) at least 40%? Entry: `COC(=N)c1nc2ccc3ncnc(Nc4ccc(OC)cc4F)c3c2s1`
no

Form field: Population Mitotic Cells (%) at least 40%? Entry: `CCCn1c(=O)c2[nH]c(-c3cnn(Cc4cccc(C(F)(F)F)c4)c3)nc2n(CC)c1=O`
no

Form field: Population Mitotic Cells (%) at least 40%? Entry: `COc1ccc(-c2ccc3c(N4CCOCC4)nc(N4C[C@@H](C)O[C@@H](C)C4)nc3n2)cc1CO`
no

Form field: Population Mitotic Cells (%) at least 40%? Entry: `O=C(Nc1ccc(-c2ccnc(Nc3ccc(N4CCOCC4)cc3)n2)cc1)[C@@H]1CCCN1`
yes

Form field: Population Mitotic Cells (%) at least 40%? Entry: `CN1CCN(C(=O)C(C)(C)c2ccc(C(=O)Nc3cn4cc(-c5cc(C(C)(C)C)cc(C(C)(C)C)c5)ccc4n3)cc2)CC1`
no

Form field: Population Mitotic Cells (%) at least 40%? Entry: `O=C1N/C(=N/c2ccccc2F)S/C1=C\c1ccc(C(=O)O)cc1`
no

Form field: Population Mitotic Cells (%) at least 40%? Entry: `Cc1ccc(C(=O)Nc2cccc(C(F)(F)F)c2)cc1Nc1nc(-c2cccnc2)nc2c1cnn2C`
no

Form field: Population Mitotic Cells (%) at least 40%? Entry: `Cl.O=c1c2cccn2c2ccccc2n1CCCN1CCC(c2ccc(Cl)cc2)CC1`
yes

Form field: Population Mitotic Cells (%) at least 40%? Entry: `O=C(Nc1ccc(Cl)cc1)Nc1cccc(-c2cccc(N3CCCC3)n2)c1`
no

Form field: Population Mitotic Cells (%) at least 40%? Entry: `CNc1cc(Oc2cc(C(=O)Nc3cc(N4CCN(C)CC4)cc(C(F)(F)F)c3)ccc2C)ncn1`
yes

Form field: Population Mitotic Cells (%) at least 40%? Entry: `C=CCn1c(=O)c2cnc(Nc3ccc(N4CCN(C)CC4)cc3)nc2n1-c1cccc(C(C)(C)O)n1`
yes

Form field: Population Mitotic Cells (%) at least 40%? Entry: `Cn1nc(C(F)(F)F)cc1-c1cnc(N2CCc3cc(S(=O)(=O)Nc4c(F)cc(Cl)cc4F)cc(N4CCCC4=O)c32)nc1`
no

Form field: Population Mitotic Cells (%) at least 40%? Entry: `CCCS(=O)(=O)Nc1ccc(F)c(C(=O)c2c[nH]c3ncc(Cl)cc23)c1F`
no

Form field: Population Mitotic Cells (%) at least 40%? Entry: `Cc1cc(C)c(S(=O)(=O)N(Cc2ccc(-c3cccc(S(C)(=O)=O)c3)cc2)Cc2ccc(C(F)(F)F)o2)c(C)c1`
yes

Form field: Population Mitotic Cells (%) at least 40%? Entry: `S=C(NCCCc1c[nH]cn1)NCCCN(Cc1ccc(Cl)c(Cl)c1)c1ccc(Br)cn1`
yes

----------
Can you tell me Population Hoechst High Intensity Objects (%) for the items I'm about to list?
- System: Fibroblast
- experimental-protocol: Multiplex assay against human fibroblast
- Assay type: toxicity, cell-based
- cond: 12 h, 1 µM, compound concentration 1 uM, replicate 2
// note: answer is a bare numeric in %

Using Fibroblast as the test system, report measured Population Hoechst High Intensity Objects (%) of `CCc1cccc(CC)c1NC(=O)c1nn(C)c2c1CCc1cnc(Nc3ccc(N4CCN(C)CC4)cc3OC)nc1-2` .
25

Using Fibroblast as the test system, report measured Population Hoechst High Intensity Objects (%) of `C=CCn1c(=O)c2cnc(Nc3ccc(N4CCN(C)CC4)cc3)nc2n1-c1cccc(C(C)(C)O)n1` .
35

Using Fibroblast as the test system, report measured Population Hoechst High Intensity Objects (%) of `CCCn1c(=O)c2[nH]c(-c3cnn(Cc4cccc(C(F)(F)F)c4)c3)nc2n(CC)c1=O` .
2

Using Fibroblast as the test system, report measured Population Hoechst High Intensity Objects (%) of `Cn1nc(C(F)(F)F)cc1-c1cnc(N2CCc3cc(S(=O)(=O)Nc4c(F)cc(Cl)cc4F)cc(N4CCCC4=O)c32)nc1` .
34

Using Fibroblast as the test system, report measured Population Hoechst High Intensity Objects (%) of `Cl.Oc1ccc2c3c1O[C@H]1c4[nH]c5c(c4C[C@@]4(O)[C@@H](C2)N(CC2CC2)CC[C@]314)C[C@@]1(O)[C@H]2Cc3ccc(O)c4c3[C@@]1(CCN2CC1CC1)[C@H]5O4` .
9

Using Fibroblast as the test system, report measured Population Hoechst High Intensity Objects (%) of `C=C1/C(=C\C=C2/CCC[C@]3(C)[C@@H]([C@H](C)/C=C/[C@H](C)C(C)C)CC[C@@H]23)C[C@@H](O)C[C@@H]1O` .
1

Using Fibroblast as the test system, report measured Population Hoechst High Intensity Objects (%) of `O=C(Cc1ccc(-c2ccc(OCCN3CCOCC3)cc2)cn1)NCc1ccccc1` .
12

----------
- Test system: U2OS
- experimental-protocol: Multiplex assay against U2OS
- Format: toxicity, cell-based
- cond: human, 12 h, 1 µM, compound concentration 1 uM, replicate 1
property-measured: Population Healthy Nuclei (%)
// note: answer is a bare numeric in %

Using U2OS as the test system, report measured Population Healthy Nuclei (%) of COc1cc2ncnc(Nc3ccc(F)c(Cl)c3)c2cc1NC(=O)/C=C/CN1CCCCC1 [DACOMITINIB ANHYDROUS] .
84

Using U2OS as the test system, report measured Population Healthy Nuclei (%) of `CCn1cc(-c2ccnc3[nH]c(-c4cccc(CN(C)C)c4)cc23)c(-c2ccc(NC(=O)N(C)C)cc2)n1` .
91

Using U2OS as the test system, report measured Population Healthy Nuclei (%) of `CCCS(=O)(=O)c1nc(NC2CC2)cc(-c2ccc3c(ccn3C3CC(C)(C)NC(C)(C)C3)c2)n1` .
62

Using U2OS as the test system, report measured Population Healthy Nuclei (%) of `CCN1CCN(c2ccc(Nc3cc(N(C)C(=O)Nc4c(Cl)c(OC)cc(OC)c4Cl)ncn3)cc2)CC1` .
60

Using U2OS as the test system, report measured Population Healthy Nuclei (%) of `CN1CCN(C(=O)C(C)(C)c2ccc(C(=O)Nc3cn4cc(-c5cc(C(C)(C)C)cc(C(C)(C)C)c5)ccc4n3)cc2)CC1` .
81

Using U2OS as the test system, report measured Population Healthy Nuclei (%) of `Cn1nc(C(F)(F)F)cc1-c1cnc(N2CCc3cc(S(=O)(=O)Nc4c(F)cc(Cl)cc4F)cc(N4CCCC4=O)c32)nc1` .
88

Using U2OS as the test system, report measured Population Healthy Nuclei (%) of `O=C(Nc1cccnn1)N1CCC(=Cc2cccc(Oc3ccc(C(F)(F)F)cn3)c2)CC1` .
87

Using U2OS as the test system, report measured Population Healthy Nuclei (%) of `CCCn1c(=O)c2[nH]c(-c3cnn(Cc4cccc(C(F)(F)F)c4)c3)nc2n(CC)c1=O` .
78

Using U2OS as the test system, report measured Population Healthy Nuclei (%) of `Cc1cn(-c2cc(NC(=O)c3ccc(C)c(Nc4nccc(-c5cccnc5)n4)c3)cc(C(F)(F)F)c2)cn1` .
69

Using U2OS as the test system, report measured Population Healthy Nuclei (%) of `COc1ccc(S(=O)(=O)N(CCO)c2ccccc2CN(C)C/C=C/c2ccc(Cl)cc2)cc1.O=P(O)(O)O` .
77

Using U2OS as the test system, report measured Population Healthy Nuclei (%) of `CCNc1cc(N[C@H]2CC[C@H](O)CC2)nc(Nc2ccc3c(ccn3Cc3ccccc3)c2)n1` .
81

Using U2OS as the test system, report measured Population Healthy Nuclei (%) of `COc1cccc2cc(-c3nc([C@H]4CC[C@H](C(=O)O)CC4)n4ncnc(N)c34)[nH]c12` .
81

Using U2OS as the test system, report measured Population Healthy Nuclei (%) of `Cl.O=c1c2cccn2c2ccccc2n1CCCN1CCC(c2ccc(Cl)cc2)CC1` .
77

Using U2OS as the test system, report measured Population Healthy Nuclei (%) of `CCCS(=O)(=O)Nc1ccc(F)c(C(=O)c2c[nH]c3ncc(Cl)cc23)c1F` .
88

Using U2OS as the test system, report measured Population Healthy Nuclei (%) of `CNC(=O)c1ccc(Nc2nc(OC3CCCC3)c3c(-c4ccc5nc(C)oc5c4)c[nH]c3n2)c(OC)c1` .
64

Using U2OS as the test system, report measured Population Healthy Nuclei (%) of CN(C)C(=O)C(CCN1CCC(O)(c2ccc(Cl)cc2)CC1)(c1ccccc1)c1ccccc1.Cl [LOPERAMIDE HYDROCHLORIDE] .
69
